# assay-comment: chemical genetic growth profiling, strain panel (AID 1159580);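 also: tested at 20 µM; growth read once vehicle control cultures reached saturation at 30 °C; 1 = growth at the plate median or of vehicle wells; lower values mean less growth of the strain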
# condition-notes: S. cerevisiae deletion strains, growth OD, locus YDR159W, strain sac3, hits give low values
Among all 5,500 compounds or so, about 2,000 (36%) were called active. Roughly 18% stayed inconclusive and do not appear here. The list shows a part of the results.
measurement-type: normalized growth
Answer with a number only.

Examples from the recorded data:
>>> reported_value("CC[C@H](C)C(=O)O[C@H]1C[C@@H](C)C=C2C=C[C@H](C)[C@H](CC[C@@H]3C[C@@H](O)CC(=O)O3)[C@H]21")
1.02
>>> reported_value("C=C1CCC2C(CC2(C)C)C(=C)CC/C1=N\\O (stereo unspecified)")
0.977

Task item: Determine from records and report normalized growth for CC(C)NCC(O)COc1cccc2ccccc12 (stereo unspecified)
Reply: 0.992

Task item: Determine from records and report normalized growth for "CC1(C)NC(=O)N(c2ccc([N+](=O)[O-])c(C(F)(F)F)c2)C1=O"
Reply: 0.985

Task item: Determine from records and report normalized growth for "Cn1c(=O)c2[nH]cnc2n(C)c1=O"
Reply: 0.982

Task item: Determine from records and report normalized growth for CO/N=C(\C(=O)NC1C(=O)N2C(C(=O)OC(C)OC(C)=O)=C(COC(N)=O)CSC12)c1ccco1 (stereo unspecified)
Reply: 0.996

Task item: Determine from records and report normalized growth for CC1C[C@H]2CC(=O)[C@H]3CCCN4CCC[C@H]2[C@]34C1 (stereo partly specified)
Reply: 1

Task item: Determine from records and report normalized growth for "CCCCOC(=O)c1ccccc1C(=O)OCCCC"
Reply: 0.993

Task item: Determine from records and report normalized growth for O=C(C1CCCCC1)N1CC(=O)N2CCc3ccccc3C2C1 (stereo unspecified)
Reply: 0.976

====

Each item that follows carries a reported normalized growth.
# assay-comment: chemical genetic growth profiling, strain panel (AID 1159580)
# condition-notes: S. cerevisiae deletion strains, growth OD, locus YPR141C, strain kar3, hits give low values
Hit rate of the full screen: of about 5,500 compounds, about 2,000 (36%) were called active. Another 18% or so got no clear call; they are omitted. This is one part of the list.
Answer with a number only.

Examples from the recorded data:
>>> reported_value("O=C1OC(c2ccc(O)cc2)(c2ccc(O)cc2)c2ccccc21")
0.998
>>> reported_value("C=C1CCC(C2CC(=O)OC2=O)C(=O)CCC2C1CC2(C)C (stereo not given)")
1
>>> reported_value("CC(C)COCC(CN(Cc1ccccc1)c1ccccc1)N1CCCC1 (stereo not given)")
0.984
>>> reported_value("OCc1ccccc1O")
0.992
>>> reported_value("CC(C)C(C)/C=C/C(C)C1CCC2C3=CC=C4CC(O)CCC4(C)C3CCC21C (stereo not given)")
1.01

Task item: Determine from records and report normalized growth for COC(=O)[C@@H]1OC(=O)[C@H]2O[C@@]23[C@@]1(C)CCC1[C@@]2(C)CCC(=O)C(C)(C)C2C[C@@H](OC(C)=O)[C@]13C (stereo not given in full)
Reply: 1.01

Task item: Determine from records and report normalized growth for "CC[N+](CC)(CC)CCOc1cccc(OCC[N+](CC)(CC)CC)c1OCC[N+](CC)(CC)CC"
Reply: 1.02

Task item: Determine from records and report normalized growth for C=C1CCC(OC(C)=O)/C(C)=C/C[C@@H]2[C@@H]1CC2(C)C (stereo not given in full)
Reply: 1.02

Task item: Determine from records and report normalized growth for "CC(=O)Oc1c(C)cccc1C(=O)O"
Reply: 1

Task item: Determine from records and report normalized growth for C=C1C(=O)OC2CC1C(OC(C)=O)C/C(C)=C/CC/C(C)=C/CC[C@]2(C)O (stereo not given in full)
Reply: 1.01

Task item: Determine from records and report normalized growth for CC1C[C@H]2CC(=O)[C@H]3CCCN4CCC[C@H]2[C@]34C1 (stereo not given in full)
Reply: 1.02

====

Each item that follows carries a reported normalized growth.
# assay-comment: chemical genetic growth profiling, strain panel (AID 1159580)
# condition-notes: S. cerevisiae deletion strains, growth OD, locus YER155C, strain BEM2 (second series), hits give low values
In all, about 5,500 compounds went through this assay and about 2,000 (36%) were called active. About 18% were inconclusive and are not listed. This is one part of the list.
Answer with a number only.

Examples from the recorded data:
>>> reported_value("CC(C)(Oc1ccc(C2CC2(Cl)Cl)cc1)C(=O)O (stereo not given)")
1
>>> reported_value("OC(Cn1cncn1)(Cn1cncn1)c1ccc(F)cc1F")
0.99
>>> reported_value("C[N+]1(C)C2CC(OC(=O)[C@@H](CO)c3ccccc3)CC1C1OC12 (stereo not given in full)")
1.02
>>> reported_value("Clc1cccc(Cl)c1NC1=NCCN1")
1

Now look at this entry.
Task item: Determine from records and report normalized growth for "CCOC(=O)c1ccc(O)cc1"
Reply: 0.975

====

# assay-comment: chemical genetic growth profiling, strain panel (AID 1159580);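 also: tested at 20 µM; growth read once vehicle control cultures reached saturation at 30 °C; 1 = growth at the plate median or of vehicle wells; lower values mean less growth of the strain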
# condition-notes: S. cerevisiae deletion strains, growth OD, locus YLR221C, strain rsa3
In all, about 5,500 compounds went through this assay and about 2,000 (36%) were called active. Inconclusive results (about 18%) are left out. Cut-off read from the data, not from the text of the source: active = normalized growth mostly below about 0.91 (no sharp cut-off); inconclusive = no clear call, values can overlap the other calls; inactive = mostly above about 0.92. The list shows a part of the results.
Please state which outcome applies, choosing from active, inactive

Task item: Recorded test outcome, item "O=c1cc[nH]c(=S)[nH]1"
Reply: inactive

Task item: Recorded test outcome, item C=CCCCCCCCCCCCC(O)CC(O)COC(C)=O (stereo not given) (tested in a mixture with another compound)
Reply: active

Task item: Recorded test outcome, item "CN1C(C(=O)Nc2ccccn2)=C(O)c2ccccc2S1(=O)=O"
Reply: inactive

Task item: Recorded test outcome, item C#CCCCCCCCCCCCC(O)CC(O)COC(C)=O (stereo not given)
Reply: active

Task item: Recorded test outcome, item CC(C)NCC(O)c1cc(O)cc(O)c1 (stereo not given)
Reply: inactive

Task item: Recorded test outcome, item "CCOC(=O)Nc1nc2ccccc2[nH]1"
Reply: inactive

Task item: Recorded test outcome, item "O=C1C=C2C=C[C@@H]3C[C@@]2(O1)[C@H]1CCCCN31"
Reply: inactive

Task item: Recorded test outcome, item "CC(C)[C@@H]1CC[C@@H](C)C[C@H]1O"
Reply: inactive

Task item: Recorded test outcome, item "Cc1cccc(Nc2ccccc2C(=O)O)c1C"
Reply: inactive

Task item: Recorded test outcome, item "COc1ccc2c(c1)O[C@H]1c3ccc(OC)cc3OC[C@@H]21"
Reply: inactive

Task item: Recorded test outcome, item "C=C1C(=O)O[C@@H]2C[C@@]3(C)CCC[C@H](C)C3=C[C@H]12"
Reply: active

Task item: Recorded test outcome, item C=CCSCC1Nc2cc(Cl)c(S(N)(=O)=O)cc2S(=O)(=O)N1 (stereo not given)
Reply: inactive

Task item: Recorded test outcome, item C=CC(N)CCC(=O)O (stereo not given)
Reply: inactive

Task item: Recorded test outcome, item "O=C(O)CN1C(=O)c2cccc3cccc(c23)C1=O"
Reply: inactive

Task item: Recorded test outcome, item "Clc1cccc(Cl)c1NC1=NCCN1"
Reply: inactive

====

# assay-comment: chemical genetic growth profiling, strain panel (AID 1159580);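 also: tested at 20 µM; growth read once vehicle control cultures reached saturation at 30 °C; 1 = growth at the plate median or of vehicle wells; lower values mean less growth of the strain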
# condition-notes: S. cerevisiae deletion strains, growth OD, locus YGR078C, strain PAC10, hits give low values
Among all 5,500 compounds or so, about 2,000 (36%) were called active. Another 18% or so got no clear call; they are omitted. Some of the results follow.
Each item that follows carries a reported normalized growth.
Answer with a number only.

>>> reported_value("C=C1CCC(C2CC(=O)OC2=O)C(=O)CCC2C1CC2(C)C (configuration not stated)")
1.04
>>> reported_value("c1ccc(-c2cc3c(ccc4nonc43)nn2)cc1")
0.973

Task item: Determine from records and report normalized growth for "CCCCN(CCCC)CCCOC(=O)c1ccc(N)cc1"
Reply: 0.97

Task item: Determine from records and report normalized growth for "COc1c(OC)c2occc2c2oc(=O)ccc12"
Reply: 0.882

Task item: Determine from records and report normalized growth for "NCCc1c[nH]c2ccc(C(N)=O)cc12"
Reply: 1.02

====

# assay-comment: chemical genetic growth profiling, strain panel (AID 1159580);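 also: tested at 20 µM; growth read once vehicle control cultures reached saturation at 30 °C; 1 = growth at the plate median or of vehicle wells; lower values mean less growth of the strain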
# condition-notes: S. cerevisiae deletion strains, growth OD, locus YNL233W, strain BNI4, hits give low values
Among all 5,500 compounds or so, about 2,000 (36%) were called active. Roughly 18% stayed inconclusive and do not appear here. Some of the results follow.
Each item that follows carries a reported normalized growth.
Answer with a number only.

Examples from the recorded data:
>>> reported_value("C#CCCCCCCCCCCCC(O)CC(O)CO (stereo not given)")
0.991
>>> reported_value("COC(=O)C(C)c1ccc(C(=O)c2cccs2)cc1 (stereo not given)")
1.01
>>> reported_value("CC(=O)OCC(COC(C)=O)OC(C)=O")
1.01
>>> reported_value("COc1ccc2c(c1O)OCC1c3cc4c(cc3OC21)OCO4 (stereo not given)")
0.971

Task item: Determine from records and report normalized growth for C=C1C(C)C2C(Cc3ccccc3)NC(=O)C23OC(=O)/C=C/C(=O)CCCC(C)C/C=C/C3C1O (stereo not given)
Reply: 1.02
